- System under test: T1, human CD8αα homodimer, recombinant protein (Acro Biosystems) (human, UniProt P01732 22-182)
- T1 construct: also called CD8αα antigen; biotinylated CD8α recombinant protein (CDA-H82E3)
- T1 sequence (P01732 22-182 limits assumed): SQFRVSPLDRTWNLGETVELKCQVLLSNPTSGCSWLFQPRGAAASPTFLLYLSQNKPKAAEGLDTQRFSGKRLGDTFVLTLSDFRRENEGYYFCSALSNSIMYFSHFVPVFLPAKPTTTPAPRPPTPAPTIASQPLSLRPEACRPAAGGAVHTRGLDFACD
- Experiment: BLI kinetics, F(ab) on biotinylated CD8α (SA-XT sensor), 1:1 fit, 30 °C
Task for the reader: assign each of the following binders its reported Kd.
Numbers only, in nM.

Binder	Measurement units	Kd
CBD1032 (Fab, V domains shown, also called h1017-H1/L1 F(ab)) VH: QVQLVQSGAEVKKPGASVKVSCKASRYTFTDYNLHWVRQAPGQGLEWMGFIYPYNGGTGYAQKFQGRVTMTRDTSTSTVYMELSSLRSEDTAVYYCARDHRYNEGVSFDYWGQGTTVTVSS VL: DIQMTQSPSSLSASVGDRVTITCRASESVDGFGNSFMNWYQQKPGKAPKLLIYLASNLESGVPSRFSGSGSGTDFTLTISSLQPEDFATYYCQQNNEDPYTFGQGTKLEIK	nM	1.84

## Task Look up Kd for this binder: CBD1038 (Fab, V domains shown, also called h1017-H4/L3 F(ab)) VH: QVQLVQSGAEVKKPGASVKVSCKASRYTFTDYNLHWVRQAPGQGLEWMGFIYPYNGGTGYAQKFQGRVTMTVDYSTSTAYMELSSLRSEDTAVYYCARDHRYNEGVSFDYWGQGTTVTVSS VL: DIQLTQSPSSLSASVGDRATITCRASESVDGFGNSFMNWYQQKPGKAPKLLIYLASNLESGVPSRFSGSGSRTDFTLTISSVQPEDFATYYCQQNNEDPYTFGQGTKLEIK
## Result 2.31
